pIC50: −log10 of the molar value.
# merged literature set: pIC50 with Human Factor XIIa (Homo sapiens)

Lookup: Request: pIC50, test system Human Factor XIIa (Homo sapiens), entry Cn1ccc(OCC23CN(C(=O)CCc4cccc(C(F)(F)F)c4)C(CNc4cccc5c(N)nccc45)(C2)C3)cc1=O
Found: 7.00 to 8.00

Lookup: Which measured pIC50 belongs to NC(=O)CN1CCc2ccc(N3CCc4c(C(=O)NCC5CC5)nn(-c5cccc(Cl)c5)c4C3=O)cc2C1=O , tested on Human Factor XIIa (Homo sapiens)?
Found: 6.00 to 6.52

Lookup: Tell me reported pIC50 for CCNC(=O)c1nn(-c2cccc(Cl)c2)c2c1CCN(c1cccc(N3C(=O)CC[C@H]3C)c1)C2=O , tested with Human Factor XIIa (Homo sapiens).
Found: 4.40 to 5.00

Lookup: # get_value(readout= pIC50, system= Human Factor XIIa (Homo sapiens)) for CN1CCC(CNc2ccc(CNc3cc(C(F)(F)F)cc4[nH]c(Cl)cc34)cn2)CC1
Found: 5.52 to 6.00
